B1: TMEM106C (parent)
chain: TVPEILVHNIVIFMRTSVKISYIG

variants of: B1; assay: protein stability index of a GFP-peptide fusion (GPS, HEK-293T) (PSI 1-6); higher = more stable; details: c terminus: a fixed tail appended;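 further: lentivirally expressed fusions sorted by FACS into six bins by GFP to DsRed ratio, PSI derived from sequencing read proportions per bin multiplied by bin number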
Endpoint label: protein stability index
Answers are plain numbers.

Examples from the recorded data:
1) I10M ... 3.31
2) V7M ... 2.05
3) G24I ... 3.38

Quick one: give me protein stability index for each item below, same order please.
1. S21D
2. P3Q

Given back:
1. 2.53
2. 2.68

Quick one: give me protein stability index for each item below, same order please.
1. V7I
2. I5Q
3. F13T
4. N9E

Given back:
[4.62, 3.61, 2.99, 2.96]

Quick one: give me protein stability index for each item below, same order please.
1. M14V
2. V7K
3. L6H
4. M14C
5. K19Q
6. T1L

Given back:
[2.68, 3.79, 3.88, 2.99, 3.02, 2.03]

Quick one: give me protein stability index for each item below, same order please.
1. I10C
2. Y22H
3. I12H
4. I12K

Given back:
1: 2.67; 2: 2.67; 3: 3.33; 4: 2.81

Quick one: give me protein stability index for each item below, same order please.
1. V11C
2. R15E
3. V18F
4. Y22W
5. T1E
6. H8T
7. Y22N
8. P3S

Given back:
3.91
1.63
2.33
2.65
2.4
2.41
3.33
3.98

Asked: Given "V18W" , state its recorded protein stability index.
Given back: 2.45
